Just for reference, patent US11304946B2 is where these values come from.

# Assay system: Human AhR (Homo sapiens)
# Sequence (P35869 11-848): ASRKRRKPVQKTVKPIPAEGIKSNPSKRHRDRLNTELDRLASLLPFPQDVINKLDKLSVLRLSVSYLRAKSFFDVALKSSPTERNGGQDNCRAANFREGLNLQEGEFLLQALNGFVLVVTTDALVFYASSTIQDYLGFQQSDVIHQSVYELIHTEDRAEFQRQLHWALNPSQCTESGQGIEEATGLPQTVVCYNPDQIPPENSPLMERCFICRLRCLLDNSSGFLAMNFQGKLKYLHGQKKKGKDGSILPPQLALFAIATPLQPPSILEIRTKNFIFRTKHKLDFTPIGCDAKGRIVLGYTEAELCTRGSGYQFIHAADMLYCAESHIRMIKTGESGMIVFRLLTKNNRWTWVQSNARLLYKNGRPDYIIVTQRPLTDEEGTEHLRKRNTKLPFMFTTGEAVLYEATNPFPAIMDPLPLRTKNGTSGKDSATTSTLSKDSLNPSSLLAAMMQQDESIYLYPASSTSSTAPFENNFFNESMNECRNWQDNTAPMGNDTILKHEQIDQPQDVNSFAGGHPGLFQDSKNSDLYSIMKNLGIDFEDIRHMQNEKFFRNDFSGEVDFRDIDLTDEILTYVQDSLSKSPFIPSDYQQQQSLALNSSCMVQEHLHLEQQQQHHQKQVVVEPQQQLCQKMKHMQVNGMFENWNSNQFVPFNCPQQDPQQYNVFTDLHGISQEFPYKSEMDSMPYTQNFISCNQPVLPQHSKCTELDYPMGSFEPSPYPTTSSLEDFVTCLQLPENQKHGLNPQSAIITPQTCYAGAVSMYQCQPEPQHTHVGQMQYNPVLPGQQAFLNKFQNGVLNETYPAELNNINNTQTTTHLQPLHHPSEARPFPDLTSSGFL
# Test: Transactivation assay in human cell line (in vitro assay 1: antagonism)
# Assay conditions: U87 glioblastoma cells, AHR inducible (DRE) firefly luciferase reporter, 150 μM kynurenic acid, 20 hours
# Description: Transactivation Assay in Human Cell Line (In Vitro Assay 1) Transactivation assay was carried out in U87 glioblastoma cells (ATCC) endogenously expressing AHR. […] Firefly luciferase and Renilla activity was determined by the DualGlo Luciferase Assay System (Promega, #2920). […]
# note: boundary value 5 nM maps to rule not met; IC50 below it maps to rule met

Observe how each entry below is paired with its result.
- Compound: "Cn1cc(-c2nc(C(=O)N[C@H]3CC[C@H]3O)cc(-c3ccc(OC(F)(F)F)cc3)n2)cn1 (relative stereo) [Example 107]"
  Answer label: "rule met"
- Compound: "C[C@H](NC(=O)c1cc(-c2ccc(OC(F)(F)F)cc2)nc(-c2cnn(C)c2)n1)C(C)(C)O [Example 102]"
  Answer label: "rule not met"
- Compound: "Cn1cc(-c2nc(C(=O)NC3CCCC(F)(F)C3O)cc(-c3ccc(OC(F)(F)F)cc3)n2)cn1 (centres unmarked) [Example 106]"
  Answer label: "rule not met"

Say whether its IC50 is strictly beneath 5 nM. Entry: C[C@@H](CO)NC(=O)c1cc(-c2ccc(Cl)cc2)nc(-c2ccnn2C)n1 [Example 74] rule not met

Strictly below 5 nM: is that where IC50 of Cn1cc(-c2nc(C(=O)N[C@H]3CCC[C@@H]3O)cc(-c3ccc(OC(F)(F)F)cc3)n2)cn1 (stereo in doubt) [Example 87] sits? rule not met

Hello, I'm reviewing records and need to know if IC50 of C[C@@H](CO)NC(=O)c1cc(-c2ccc(OC(F)(F)F)cc2)nc(-c2cccnc2)n1 [Example 1] is below 5 nM. Could you check? rule met

Please check: IC50 for Cn1cc(-c2nc(C(=O)N[C@H]3CCCC[C@@H]3O)cc(-c3ccc(OC(F)(F)F)cc3)n2)cn1 (relative stereo) [Example 92] , strictly under 5 nM or not? rule met

Please check: IC50 for Cc1n[nH]cc1-c1nc(C(=O)N[C@@H](C)CO)cc(-c2ccc(Cl)cc2)n1 [Example 82] , strictly under 5 nM or not? rule not met

====

Task for the reader: assign each of the following compounds its reported IC50.
# Assay system: UniProt P30561
# Test: Transactivation assay in mouse cell line (in vitro assay 2: antagonism)
# Assay conditions: Hepa 1c1c7 cells, AHR inducible (DRE) firefly luciferase reporter, 200 μM kynurenic acid, 20 hours
Numbers only, in nM.

- Compound: "Cn1cc(-c2nc(C(=O)N[C@@H]3COC[C@@H]3O)cc(-c3ccc(OC(F)(F)F)cc3)n2)cn1 (relative stereo)"
  Assay system: "UniProt P30561"
  Unit tag: "nM"
  IC50: 6.01
- Compound: "CC(C)(O)CNC(=O)c1cc(-c2ccc(Cl)cc2)nc(-c2ccc(C#N)s2)n1"
  Assay system: "UniProt P30561"
  Unit tag: "nM"
  IC50: 961
- Compound: "Cc1nn(C)cc1-c1nc(C(=O)N[C@@H](C)CO)cc(-c2ccc(OC(F)(F)F)cc2)n1"
  Assay system: "UniProt P30561"
  Unit tag: "nM"
  IC50: 271

Given the compound Cn1cc(-c2nc(C(=O)N[C@@H](C#N)CO)cc(-c3ccc(OC(F)(F)F)cc3)n2)cn1 and test system UniProt P30561, the measured IC50 is 18.9
